molecular target: HIPK1 (human); test: radiometric filter-binding kinase assay; conditions: compound 10.0 µM
reported-endpoint: residual activity (%)
Note: unit % is implicit; provide only the numeric part.

Find the recorded residual activity belonging to Cc1ccc(-c2ccc3c(ccc4sc5c(c43)NC[C@@H](C)NC5=O)n2)cn1 and report it.
130

// returns reported residual activity for input O=C(O)c1cc(N=Nc2ccc(S(=O)(=O)Nc3ccccn3)cc2)ccc1O
105

Query: residual activity; subject: O=c1c(O)c(-c2ccc(O)c(O)c2)oc2cc(O)c(O)c(O)c12
11

Reported residual activity, compound CCCCCc1ccc(/C=C/[C@H](O)[C@@H](CO)NC)cc1 : ____
94

Field request: residual activity | item: C=CC(=O)N1CCC[C@@H](n2nc(-c3ccc(Oc4ccccc4)cc3)c3c(N)ncnc32)C1
75

###

target: DYRK2 (human); assay: radiometric filter-binding kinase assay; conditions: compound 10.0 µM
Consider the following compounds; for each one, report its residual activity.
Numbers only here, please. The scale is %.

Item under review: CC(C)C[C@H](NC(=O)CNC(=O)c1cc(Cl)ccc1Cl)B1OC(=O)CC(CC(=O)O)(C(=O)O)O1 (stereo partly specified) . Reported residual activity?
94

Endpoint output: residual activity of NC(=O)c1cc2c(-c3cccc(-c4ccccc4)c3)cnc(N)c2s1 . Value?
88

Return reported residual activity; argument: NC(=O)Nc1ccc2c(c1)/C(=C/c1cc(-c3cccnc3)c[nH]1)C(=O)N2
0

Can you share its residual activity? I mean this compound: CCNc1nc(Nc2cc(F)c(C(=O)N3CCOCC3)cc2OC)ncc1C(F)(F)F
17

If you can, please state the reported residual activity value of O=C(Nc1ccccc1-c1cn2c(CN3CCNCC3)csc2n1)c1cnc2ccccc2n1 .
94

Given the entry CCc1cncnc1N1CCN(Cc2nc3cc(C(F)(F)F)ccc3[nH]2)CC1 , report its measured residual activity.
101

Record request: residual activity value, item CCCC(CCC)C(=O)O
102

Reported residual activity, compound Cc1nc(-c2ccc(OCC(C)C)c(C#N)c2)sc1C(=O)O : ____
83

Can you share its residual activity? I mean this compound: O=c1c(O)c(-c2ccc(O)c(O)c2)oc2cc(O)c(O)c(O)c12
1

If you can, please state the reported residual activity value of NC(=O)c1c(NC(=O)C2CC2)sc2c1CCCC2 .
86

Reported residual activity for Oc1ccc(/C=C/c2cc(O)cc(O)c2)cc1 : what is it?
15

###

Provide the reported residual activity of each item.
target: FGFR1 (human); assay: radiometric filter-binding kinase assay; conditions: compound 0.1 µM
Give the value, in units of %, as a plain number.

Entry under review: Cc1ccc(-c2ccc3c(ccc4sc5c(c43)NC[C@@H](C)NC5=O)n2)cn1 . Reported residual activity?
95

Name the recorded residual activity for COc1ccc(-n2ncc3cnc(Nc4cc(OC)c(OC)c(OCCCN5CCN(C)CC5)c4)nc32)cc1 .
20

What value of measured residual activity is listed for O=C(N[C@@H](COc1ccc2[nH]c(=O)[nH]c2c1)c1ccccc1)c1cccn(Cc2ccc(F)c(F)c2)c1=O ?
96

# input compound: Cc1cc(NC(=O)c2cccc(NC(=O)/C=C/CN(C)C)c2)ccc1Nc1nccc(-c2cccnc2)n1 ; wanted: its residual activity
103

What does the data say about its residual activity? Entry: CCn1c(-c2nonc2N)nc2cncc(CNC3CCNCC3)c21
101

Given CN1CCN(CCOc2cc(OC3CCOCC3)c3c(Nc4c(Cl)ccc5c4OCO5)ncnc3c2)CC1 , state its recorded residual activity.
110

Which measured residual activity value corresponds to O=C(Nc1ccccc1-c1cn2c(CN3CCNCC3)csc2n1)c1cnc2ccccc2n1 ?
103

Query (compound): O=C(NCCCNc1nc(Nc2cccc(CN3CCOCC3)c2)ncc1C1CC1)C1CCC1 ; field requested: residual activity
83

May I ask what residual activity has been recorded for Cc1ccc(Sc2cnc(Nc3cccc(Br)n3)s2)cc1C(=O)N1CCN(C(=O)CN)CC1 ?
47

// provenance: the kinase profiling compilation of Christmann-Franck et al. (2016)
